target: human CD28 (human, UniProt P10747 19-220); assay: flow cytometry, Jurkat/IL2 reporter cells (endogenous CD28)
quantity_measured: MFI at 33.3 nM (MFI)

binder: variant CD80 IgV-Fc H18Y/V68M/A71G/D90G (Fc fusion, not shown: small tags and cut ends; a dimerising Fc or GST) VIHVTKEVKEVATLSCGYNVSVEELAQTRIYWQKEKKMVLTMMSGDMNIWPEYKNRTIFDITNNLSIMILGLRPSDEGTYECVVLKYEKGAFKREHLAEVTLSVKAD
observed_value: 3410

binder: variant CD80 IgV-Fc H18Y/A26E/A71G/D90G (Fc fusion, not shown: small tags and cut ends; a dimerising Fc or GST) VIHVTKEVKEVATLSCGYNVSVEELEQTRIYWQKEKKMVLTMMSGDMNIWPEYKNRTIFDITNNLSIVILGLRPSDEGTYECVVLKYEKGAFKREHLAEVTLSVKAD
observed_value: 2000

binder: variant CD80 IgV-Fc H18Y/A26E/E35D/M47L (Fc fusion, not shown: small tags and cut ends; a dimerising Fc or GST) VIHVTKEVKEVATLSCGYNVSVEELEQTRIYWQKDKKMVLTMMSGDLNIWPEYKNRTIFDITNNLSIVILALRPSDEGTYECVVLKYEKDAFKREHLAEVTLSVKAD
observed_value: 324

binder: variant CD80 IgV-Fc M47L/V68M/A71G/D90G (Fc fusion, not shown: small tags and cut ends; a dimerising Fc or GST) VIHVTKEVKEVATLSCGHNVSVEELAQTRIYWQKEKKMVLTMMSGDLNIWPEYKNRTIFDITNNLSIMILGLRPSDEGTYECVVLKYEKGAFKREHLAEVTLSVKAD
observed_value: 3610
